molecular target: HLA-A*0301 (human); conditions: remark: other sources report otherwise; scale: ratio
readout-type: relative binding ratio
Give bare numbers.

Okay, here is my list. What is relative binding ratio for each of these?
1. YGFRLGFLH [p53 peptide, position 107, 9 amino acids]
2. VTCTYSPALNK [p53 peptide, position 122, 11 amino acids]
3. TCTYSPALNK [p53 peptide, position 123, 10 amino acids]
4. TSRHKKLMFK [p53 peptide, position 377, 10 amino acids]
5. TSSSPQPK [p53 peptide, position 312, 8 amino acids]

Response line:
0.0092
0.07
0.0056
0.05
-0.0001
